Details: [M+H]+; instrument: TW; Major Mix IMS/Tof Calibration Kit (Waters)
quantity.measured: collision cross section (N2) (Å²)
# value in Å²; strip the unit string

> print(dat)
                                   molecule             quantity.measured  readout.unit  measured.number
1  NC(=O)C1(N2CCCCC2)CCN(CCCC(=O)c2ccc(F)cc2)CC1  collision cross section (N2)            Å²            194.1

Record request: collision cross section (N2) value, item Cc1cc(C(=O)NNCc2ccccc2)no1
152.1

Bench note: what collision cross section (N2) did COc1ccccc1OCCNCC(O)COc1cccc2[nH]c3ccccc3c12 (stereo not drawn) show?
190

Find the recorded collision cross section (N2) belonging to C[C@H](CS)C(=O)N1CCC[C@H]1C(=O)O and report it.
142.5

Requested read-out: collision cross section (N2). Entry: COC(=O)C1=C(C)NC(C)=C(C(=O)OC(C)(C)CN(C)CCC(c2ccccc2)c2ccccc2)C1c1cccc([N+](=O)[O-])c1 (stereo not drawn)
249.8

If you can, please state the reported collision cross section (N2) value of CCN(CCO)CCCC(C)Nc1ccnc2cc(Cl)ccc12 (stereo not drawn) [Hydroxychloroquine] .
180.2

# lookup: collision cross section (N2) of FC(F)(F)c1ccc2c(c1)C(=CCCN1CCNCC1)c1ccccc1S2
186

Look up collision cross section (N2): CN1C(=O)C(O)N=C(c2ccccc2)c2cc(Cl)ccc21 (stereo not drawn)
166.1

----------
Conditions: [M+Na-2H]-; instrument: DT; single field, calibrated with ESI Low Concentration Tuning Mix (Agilent)
quantity.measured: collision cross section (N2) (Å²)
Give the number; Å² is assumed, so skip it.

molecule	collision cross section (N2), Å²
NC(CCSSCCC(N)C(=O)O)C(=O)O (centres undefined)	154.2
Nc1ncnc2c1ncn2[C@H]1C[C@H](O)[C@@H](COP(=O)(O)O)O1 [DEOXYADENOSINE MONOPHOSPHATE]	169.8
O=C(O)Cc1ccc(O)c(O)c1 [3,4-DIHYDROXYPHENYLACETATE]	139.9
O=C(O)CC(C(=O)O)C(O)C(=O)O (centres undefined) [ISOCITRATE]	136.4
CC(C)=CC(=O)SCCNC(=O)CCNC(=O)C(O)C(C)(C)COP(=O)(O)OP(=O)(O)OC[C@H]1O[C@@H](n2cnc3c(N)ncnc32)[C@H](O)[C@@H]1OP(=O)(O)O (some centres undefined)	266.9
N[C@@H](CSSC[C@H](N)C(=O)O)C(=O)O	147.3
O=C(O)[C@H](O)[C@@H](O)[C@H](O)[C@H](O)COP(=O)(O)O [6-PHOSPHOGLUCONATE]	148.9
NC(CCSCC(N)C(=O)O)C(=O)O (centres undefined)	144.6

So what's the measured collision cross section (N2) for this one? NC(N)=N[C@@H](CC(=O)O)C(=O)O [GUANIDINOSUCCINATE]
147

----------
Conditions: [M+H-H2O]+; instrument: TW; calibrated with phosphatidylcholines (ESI+) and phosphatidylethanolamines (ESI-)
quantity.measured: collision cross section (N2) (Å²)
Give a bare numeral; the unit Å² is implied.

molecule	readout.unit	collision cross section (N2)
CC/C=C\C/C=C\C/C=C\C/C=C\C/C=C\CCCCCC(=O)O[C@@H](CO)COC(=O)CCCC/C=C\C/C=C\C/C=C\CCCCC	Å²	262.6

Now, please, on to the next molecule.
Dear colleague, I am looking for the recorded collision cross section (N2) of the following molecule: CCCCC/C=C\C/C=C\C/C=C\CCCCC(=O)OC[C@H](CO)OC(=O)CCCCCCC/C=C\CCCCCCCC
255.9
